studyTarget: T1, human interleukin 12 (human, UniProt P29459 23-219; P29460 23-328)
T1 construct: heterodimer of p35 and p40 linked by a disulfide bridge; also called hIL-12; IL-12
T1 sequence (looked up) 1: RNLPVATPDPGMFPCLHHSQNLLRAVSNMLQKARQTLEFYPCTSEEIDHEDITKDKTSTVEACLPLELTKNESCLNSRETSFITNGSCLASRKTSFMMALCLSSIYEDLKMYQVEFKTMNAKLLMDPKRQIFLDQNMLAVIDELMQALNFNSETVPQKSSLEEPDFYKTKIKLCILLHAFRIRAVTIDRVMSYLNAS
T1 sequence (looked up) 2: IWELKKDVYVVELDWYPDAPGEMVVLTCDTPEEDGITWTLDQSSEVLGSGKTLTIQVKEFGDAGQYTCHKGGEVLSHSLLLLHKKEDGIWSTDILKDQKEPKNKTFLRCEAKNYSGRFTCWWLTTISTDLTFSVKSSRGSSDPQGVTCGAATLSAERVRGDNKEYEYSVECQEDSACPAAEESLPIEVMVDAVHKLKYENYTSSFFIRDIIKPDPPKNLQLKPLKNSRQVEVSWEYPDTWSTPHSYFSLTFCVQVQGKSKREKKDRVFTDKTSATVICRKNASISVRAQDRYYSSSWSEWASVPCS
experiment: SPR (BIAcore)
Catalogue of koff readings, one per entry.
Report only the number, with the unit s⁻¹ understood.

1. 73-G4 (antibody, V domains shown) VH: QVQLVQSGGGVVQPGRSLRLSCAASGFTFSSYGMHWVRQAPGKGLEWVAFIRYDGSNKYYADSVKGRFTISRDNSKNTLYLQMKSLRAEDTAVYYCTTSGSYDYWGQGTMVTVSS VL: SYVLTQPPSVSGTPGQRVTISCSGGRSNIGSNTVKWYQQLPGTAPKLLIYGNDQRPSGVPDRFSGSKSGTSASLAITGVQAEDEADYYCQSYDMRFTGSRVFGTGTKVTVLG    0.00658

*Q* So what's the measured koff for this one? M2 D1 (antibody, V domains shown) VH: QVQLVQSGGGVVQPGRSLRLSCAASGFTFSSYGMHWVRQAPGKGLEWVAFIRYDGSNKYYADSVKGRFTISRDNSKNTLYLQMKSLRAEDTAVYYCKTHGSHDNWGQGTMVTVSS VL: SYVLTQPPSVSGTPGQRVTISCSGGRSNIGSNTVKWYQQLPGTAPKLLIYGNDQRPSGVPDRFSGSKSGTSASLAITGVQAEDEADYYCQSYDIRFTGSRVFGTGTKVTVLG
*A* 0.0371
